B1: human DPPA3, residues 81–118 (recombinant) [human] / human UHRF1 PHD finger, residues 299–366 [human] (parent)
chain 1: SRRGVRTLLSVQREKMARLRYMLLGGVRTHERRPTNKE
chain 2: GPSCKHCKDDVNRLCRVCACHLCGGRQDPDKQLMCDECDMAFHIYCLDPPLSSVPSEDEWYCPECRND

variants of: B1; test: ITC; details: with human UHRF1 PHD finger
quantity.name: Kd (µM)
Quick note: give the figure in µM, leave out the unit.

Q: May I ask what Kd has been recorded for chain 1 V5A ?
Ans: 1.61

Values from paper PMC11187062
